- assay: chemical genetic growth profiling, strain panel (AID 1159580);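 further: tested at 20 µM; growth read once vehicle control cultures reached saturation at 30 °C; 1 = growth at the plate median or of vehicle wells; lower values mean less growth of the strain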
- conditionSummary: S. cerevisiae deletion strains, growth OD, locus YPL078C, strain atp4, stronger effect = lower value
Out of some 5,500 compounds screened, about 2,000 (36%) were called active. About 18% were inconclusive and are not listed. The list shows a part of the results.
testReadout: normalized growth
The reply should be a number, written without any unit.

Q: Sample "CC(C)OC(=O)C(C)(C)Oc1ccc(C(=O)c2ccc(Cl)cc2)cc1" — what was its normalized growth?
Result: 0.985

Q: Sample C=C(C)C1CNC(C(=O)O)C1CC(=O)O (stereo not given) — what was its normalized growth?
Result: 1.01

Q: Sample "CCOC(=O)C(C)(C)Oc1ccc(Cl)cc1" — what was its normalized growth?
Result: 0.985

Q: Sample "Oc1cc(Cl)ccc1Oc1ccc(Cl)cc1Cl" — what was its normalized growth?
Result: 0.0627

Q: Sample Cc1cccc(C)c1OCC(C)N (stereo not given) — what was its normalized growth?
Result: 1

Q: Sample CNC(C)[C@H](O)c1ccccc1 (stereo not given in full) — what was its normalized growth?
Result: 1.03

Q: Sample "NC(=O)c1ccc[n+]([C@@H]2O[C@H](COP(=O)([O-])OP(=O)(O)OC[C@H]3O[C@@H](n4cnc5c(N)ncnc54)[C@H](O)[C@@H]3O)[C@@H](O)[C@H]2O)c1" — what was its normalized growth?
Result: 1.08

Q: Sample "CC(C)c1c(C(=O)c2ccccc2)c(-c2ccccc2)c(-c2ccc(F)cc2)n1CC[C@@H](O)C[C@@H](O)CC(=O)O" — what was its normalized growth?
Result: 0.908

Q: Sample "CN[C@@H](C)[C@@H](O)c1ccccc1" — what was its normalized growth?
Result: 1.02

Q: Sample "COC1=CC(=O)C[C@@H](C)[C@]12Oc1c(Cl)c(OC)cc(OC)c1C2=O" — what was its normalized growth?
Result: 1.03

###

- assay: chemical genetic growth profiling, strain panel (AID 1159580);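 further: tested at 20 µM; growth read once vehicle control cultures reached saturation at 30 °C; 1 = growth at the plate median or of vehicle wells; lower values mean less growth of the strain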
- conditionSummary: S. cerevisiae deletion strains, growth OD, locus YHR142W, strain chs7
The campaign covered roughly 5,500 compounds. About 2,000 (36%) were called active. Inconclusive results (about 18%) are left out. Rule as the data show it: active = normalized growth mostly below about 0.91 (no sharp cut-off); inconclusive = no clear call, values can overlap the other calls; inactive = mostly above about 0.92. This is one part of the list.
Output constraint: value belongs to 1.0 = active, 0.0 = inactive

Q: Write down the call the test reported for this molecule. Item: CC1=C(C(C)O)C2=NC1C=c1[nH]c(c(C)c1C(C)O)=Cc1[nH]c(c(CCC(=O)O)c1C)C=c1[nH]c(c(C)c1CCC(=O)O)=C2 (stereo not drawn)
Result: 0.0

Q: Write down the call the test reported for this molecule. Item: C=C(C)C1CNC(C(=O)O)C1CC(=O)O (stereo not drawn)
Result: 0.0

Q: Write down the call the test reported for this molecule. Item: Cc1cccc(C)c1OCC(C)N (stereo not drawn)
Result: 0.0

Q: Write down the call the test reported for this molecule. Item: "COc1cc(O)c(C(=O)/C=C/c2ccc(O)c(OC)c2)c(OC)c1"
Result: 0.0

Q: Write down the call the test reported for this molecule. Item: CC1CC2C3CCC4=CC(=O)C=C[C@]4(C)[C@@]3(F)[C@@H](O)C[C@]2(C)[C@@]1(O)C(=O)CO (stereo partly drawn)
Result: 0.0

Q: Write down the call the test reported for this molecule. Item: NCC1CCC(C(=O)O)CC1 (stereo not drawn)
Result: 0.0

Q: Write down the call the test reported for this molecule. Item: "CN(C)c1ccc(C(=C2C=CC(=[N+](C)C)C=C2)c2ccc(N(C)C)cc2)cc1"
Result: 1.0

Q: Write down the call the test reported for this molecule. Item: "COc1cc(NS(=O)(=O)c2ccc(N)cc2)nc(OC)n1"
Result: 0.0

Q: Write down the call the test reported for this molecule. Item: "CCCCCCNC(=O)n1cc(F)c(=O)[nH]c1=O"
Result: 1.0

Q: Write down the call the test reported for this molecule. Item: C=C1C2CC[C@H]3[C@]4(C)C[C@H](OC5OC(CO)C(OS(=O)(=O)O)C(OS(=O)(=O)O)C5OC(=O)CC(C)C)C[C@@H](C(=O)O)[C@H]4CC[C@]3(C2)[C@H]1O (stereo partly drawn)
Result: 0.0

Q: Write down the call the test reported for this molecule. Item: CC1=C(/C=C/C(C)=C/C=C/C(C)=C/C=C/C=C(C)/C=C/C=C(C)/C=C/C2=C(C)C(=O)C(O)CC2(C)C)C(C)(C)CC(O)C1=O (stereo not drawn)
Result: 0.0

Q: Write down the call the test reported for this molecule. Item: "COc1ccc2c(c1OC)C(=O)O[C@H]2[C@H]1c2cc3c(cc2CCN1C)OCO3"
Result: 0.0

Q: Write down the call the test reported for this molecule. Item: "CC1=C(/C=C/C(C)=C/C=C/C(C)=C/C=C/C=C(C)/C=C/C=C(C)/C=C/C(=O)[C@]2(C)C[C@@H](O)CC2(C)C)C(C)(C)C[C@H](O)C1"
Result: 0.0

Q: Write down the call the test reported for this molecule. Item: "COc1ccc2cc([C@H](C)CO)ccc2c1"
Result: 0.0

Q: Write down the call the test reported for this molecule. Item: "CC(C)(O)[C@@H]1[C@H]2OC(=O)[C@@H]1[C@]1(O)C[C@H]3O[C@]34C(=O)O[C@H]2[C@]14C"
Result: 0.0

Q: Write down the call the test reported for this molecule. Item: COc1ccc(OC)c(C(O)C(C)N)c1 (stereo not drawn)
Result: 0.0

Q: Write down the call the test reported for this molecule. Item: "CC1=C(C/C=C(\C)CCC[C@H](C)CCC[C@H](C)CCCC(C)C)C(=O)c2ccccc2C1=O"
Result: 0.0

Q: Write down the call the test reported for this molecule. Item: "CN(C)CC/C=C1\c2ccccc2Sc2ccc(Cl)cc21"
Result: 1.0

Q: Write down the call the test reported for this molecule. Item: CCN(CC)CCCC(C)Nc1c2ccc(Cl)cc2nc2ccc(OC)cc12 (stereo not drawn)
Result: 0.0

Q: Write down the call the test reported for this molecule. Item: "NC(=O)c1ccc[n+]([C@@H]2O[C@H](COP(=O)([O-])OP(=O)(O)OC[C@H]3O[C@@H](n4cnc5c(N)ncnc54)[C@H](O)[C@@H]3O)[C@@H](O)[C@H]2O)c1"
Result: 0.0

Q: Write down the call the test reported for this molecule. Item: "CN[C@@H](C)[C@@H](O)c1ccccc1"
Result: 0.0

Q: Write down the call the test reported for this molecule. Item: CC(C(=O)O)c1ccc(-c2ccccc2)c(F)c1 (stereo not drawn)
Result: 0.0

Q: Write down the call the test reported for this molecule. Item: COCCc1ccc(OCC(O)CNC(C)C)cc1 (stereo not drawn)
Result: 0.0

Q: Write down the call the test reported for this molecule. Item: ClC1=C(Cl)C2(Cl)C3C4C=CC(C4)C3C1(Cl)C2(Cl)Cl (stereo not drawn)
Result: 0.0

Q: Write down the call the test reported for this molecule. Item: C=Cc1c2[nH]c(c1C)C=c1[nH]c(c(C)c1C=C)=CC1N=C(C=c3[nH]c(c(C)c3CCC(=O)O)=C2)C(CCC(=O)O)=C1C (stereo not drawn)
Result: 0.0

Q: Write down the call the test reported for this molecule. Item: "CC1(C)OC(=O)NC1=O"
Result: 0.0

Q: Write down the call the test reported for this molecule. Item: CC(CCc1ccccc1)NC(C)C(O)c1ccc(O)cc1 (stereo not drawn)
Result: 0.0

Q: Write down the call the test reported for this molecule. Item: "Cc1[nH]c(C)c(Cl)c(=O)c1Cl"
Result: 0.0

Q: Write down the call the test reported for this molecule. Item: CC1CC2C3CC(F)C4=CC(=O)C=CC4(C)C3(F)C(O)CC2(C)C1(O)C(=O)CO (stereo not drawn)
Result: 0.0

Q: Write down the call the test reported for this molecule. Item: "COC1=C(OC)C(=O)C(C/C=C(\C)CC/C=C(\C)CC/C=C(\C)CC/C=C(/C)CC/C=C(\C)CC/C=C(\C)CC/C=C(\C)CC/C=C(\C)CC/C=C(\C)CCC=C(C)C)=C(C)C1=O"
Result: 0.0

Q: Write down the call the test reported for this molecule. Item: CC(=O)OCC(=O)[C@H]1CCC2C3CCC4=CC(=O)CC[C@]4(C)C3CC[C@@]21C (stereo partly drawn)
Result: 0.0

Q: Write down the call the test reported for this molecule. Item: "c1ccc(N=Nc2ccccc2)cc1"
Result: 0.0

Q: Write down the call the test reported for this molecule. Item: "COc1cc2c(cc1OC)Cc1cc(OC)c(OC)cc1Cc1cc(OC)c(OC)cc1C2"
Result: 0.0

Q: Write down the call the test reported for this molecule. Item: "COc1cc(O)c(C(=O)/C=C/c2ccc(OC)c(O)c2)c(OC)c1"
Result: 1.0

Q: Write down the call the test reported for this molecule. Item: "CCN(CC)CCNC(=O)c1cc(Br)c(N)cc1OC"
Result: 0.0

Q: Write down the call the test reported for this molecule. Item: CC1=C(CC(=O)O)c2cc(F)ccc2/C1=C\c1ccc(S(C)=O)cc1 (stereo not drawn)
Result: 0.0

Q: Write down the call the test reported for this molecule. Item: "CCC(=O)O[C@H]1[C@H](O[C@@H]2[C@@H](C)[C@H](O[C@H]3C[C@@](C)(OC)[C@@H](O)[C@H](C)O3)[C@@H](C)C(=O)O[C@H](CC)[C@@](C)(O)[C@H](O)[C@@H](C)C(=O)[C@H](C)C[C@@]2(C)O)O[C@H](C)C[C@@H]1N(C)C"
Result: 1.0

Q: Write down the call the test reported for this molecule. Item: "CC(=O)OCC[N+](C)(C)C"
Result: 0.0

Where do the numbers come from? From PubChem BioAssay AID1159580.
